- System: HeLa cells
- assay_info: Cell cycle assay in HeLa cells
- Format: cell-based, human
- assay_context: HeLa cells, 150 nM oligomeric compound, 48 hours after treatment; relative to untreated control (UTC=100)
In the oligonucleotide strings, read from the 5' end, every base follows the letter of its sugar. An asterisk marks phosphorothioate; unmarked linkages are phosphodiester. Other units and linkages are bracketed, terminal groups are in braces. A string of capitals states the bases alone. e = 2'-O-(2-methoxyethyl) (MOE); [5mC] = 5-methylcytosine; d = 2'-deoxy (DNA)
This listing pairs substances with measured % cells in cell cycle phase: aneuploid.
metric: % cells in cell cycle phase: aneuploid (%)

[[record]]
substance = "328339 (eG*e[5mC]*eA*eG*e[5mC]*dG*d[5mC]*dA*dG*d[5mC]*dT*dG*dG*dT*d[5mC]*eT*e[5mC]*e[5mC]*e[5mC]*e[5mC]) [compound 328339]"
assay_target = "HeLa cells"
unit_label = "%"
experimental_result = 92

[[record]]
substance = "338750 (antisense TCCGCGGGGGCGGGGAGGCT; all 2'-MOE, all phosphorothioate, methylation of C not given here) [compound 338750]"
assay_target = "HeLa cells"
unit_label = "%"
experimental_result = 190

[[record]]
substance = "338713 (antisense ACCTCTCAGGAAGACGGACT; all 2'-MOE, all phosphorothioate, methylation of C not given here) [compound 338713]"
assay_target = "HeLa cells"
unit_label = "%"
experimental_result = 194

[[record]]
substance = "328111 (antisense eT*e[5mC]*e[5mC]*eG*eA*eG*eT*e[5mC]*eG*eG*eA*eG*eG*eA*eG*eG*eA*eG*eG*eA*eA) [compound 328111]"
assay_target = "HeLa cells"
unit_label = "%"
experimental_result = 90

[[record]]
substance = "328397 (antisense eT*eT*eG*eA*eT*d[5mC]*d[5mC]*dA*dT*dA*dT*dG*d[5mC]*dA*dA*e[5mC]*eA*eA*eG*eG) [compound 328397]"
assay_target = "HeLa cells"
unit_label = "%"
experimental_result = 96

[[record]]
substance = "328119 (antisense eA*eA*eT*eA*eA*e[5mC]*eA*e[5mC]*eA*e[5mC]*eA*eT*e[5mC]*e[5mC]*eA*e[5mC]*eT*eT*eT*eA*eA) [compound 328119]"
assay_target = "HeLa cells"
unit_label = "%"
experimental_result = 81

[[record]]
substance = "327903 (antisense eA*eA*e[5mC]*eT*eA*eT*eA*e[5mC]*eA*eA*e[5mC]*e[5mC]*eT*eA*e[5mC]*eT*eA*e[5mC]*e[5mC]*eT*e[5mC]*eA) [compound 327903]"
assay_target = "HeLa cells"
unit_label = "%"
experimental_result = 94

[[record]]
substance = "327911 (antisense eG*e[5mC]*eT*eA*e[5mC]*e[5mC]*eT*eG*e[5mC]*eA*e[5mC]*eT*eG*eT*eA*eA*eG*e[5mC]*eA*e[5mC]*eT*eT*eT*eT) [compound 327911]"
assay_target = "HeLa cells"
unit_label = "%"
experimental_result = 101

[[record]]
substance = "328749 (antisense e[5mC]*eA*eG*e[5mC]*e[5mC]*dT*dG*d[5mC]*d[5mC]*dA*d[5mC]*d[5mC]*dG*d[5mC]*d[5mC]*eG*e[5mC]*eT*eT*eT) [compound 328749]"
assay_target = "HeLa cells"
unit_label = "%"
experimental_result = 65

[[record]]
substance = "328424 (antisense eA*eG*eG*eA*eA*dG*d[5mC]*dA*d[5mC]*dA*d[5mC]*dA*dT*dT*dA*eT*e[5mC]*eA*e[5mC]*eA) [compound 328424]"
assay_target = "HeLa cells"
unit_label = "%"
experimental_result = 111

[[record]]
substance = "328780 (antisense eT*eG*eT*e[5mC]*eA*dT*dG*dG*dA*d[5mC]*dA*dG*dG*dA*dT*eG*eA*eA*eT*eA) [compound 328780]"
assay_target = "HeLa cells"
unit_label = "%"
experimental_result = 133

